These measurements were taken from patent US20070134256A1.

Here, each record is paired with measured ELISA titer of Fab binding data.
experimental_system: dengue type 2 virus (DENV-2), prototype New Guinea C strain, virions (dengue type 2 virus, UniProt P14340 281-775; P14340 115-280)
assay_method_text: ELISA, virion-coated plate, Fab from ~140 µg/ml

The cases that follow already have their ELISA titer of Fab binding on record.
| binder | endpoint | result |
| --- | --- | --- |
| chimpanzee Fab 5H2 (Fab, V domains shown) VH: EVQLLESGPGLVKPSETLSLTCTVSGGSISDFYWSWLRQSPGKGLEWIGYAHSRVSAYYNPSLKSRVTISVDTSKNQLSLRLSAVTAADTALYYCARQGTGTTGVSEDPFDLWGQGTKVIVSL VL: ELQMTQSPSSLSASVGDRVTITCRASQDISIRLNWYQQKPGKAPKLLIYDASTLESGVPSRFSGSGSGTDFTLTISSLQPEDFATYYCQQFNSYPLTFGGGTKVEIKR | ELISA titer of Fab binding | < 1 log10 of reciprocal dilution |
| chimpanzee Fab 3A2 (Fab, V domains shown) VH: VQLLEQSGGGLVQPGGSRRLSCAVSGFTISDNVMHWVRQAPGKGLEWVALIYSADTTHYADSVKGRFTISRDNSKNTLYLQMDSLRPEDTAVYYCAREYCTGGTCFAHFDYWGQGTLVTVSS VL: ELTQSPSSVSASVGDTVTIACRASQSITNYLSWYQQKPGKAPKLLIYHASTLQSGIPSRFSGSGSGTDFTLTISSLQPDDFATYYCHYGYGTHTFGQGTKLEIKR | ELISA titer of Fab binding | 3.8 log10 of reciprocal dilution |

Q: Name the recorded ELISA titer of Fab binding of the item chimpanzee Fab 2H7 (Fab, V domains shown) VH: EVQLLESGGGLVQPGGSRRLSCAASGFTISDNVMHWVRQAPGKGLEWVALIYSADSTHYADSVKGRFTISRDNSKNTLYLQMDGLRPEDTAVYYCAREYCTGGTCFAHFDYWGQGTLVTVSS VL: ELQMTQSPSSLSASVGDRVTITCRASQSITNYLSWYQQKPGKAPKLLISYSSTLQSGVPSRFSGSGSGTDFTLTISSLQPEDFATYYCHYGYGTHTFGPGTKVDIKR in your answer.
Ans: 3.8 log10 of reciprocal dilution
